Target: SIRT1 (Homo sapiens)
Sequence (Q96EB6 whole entry): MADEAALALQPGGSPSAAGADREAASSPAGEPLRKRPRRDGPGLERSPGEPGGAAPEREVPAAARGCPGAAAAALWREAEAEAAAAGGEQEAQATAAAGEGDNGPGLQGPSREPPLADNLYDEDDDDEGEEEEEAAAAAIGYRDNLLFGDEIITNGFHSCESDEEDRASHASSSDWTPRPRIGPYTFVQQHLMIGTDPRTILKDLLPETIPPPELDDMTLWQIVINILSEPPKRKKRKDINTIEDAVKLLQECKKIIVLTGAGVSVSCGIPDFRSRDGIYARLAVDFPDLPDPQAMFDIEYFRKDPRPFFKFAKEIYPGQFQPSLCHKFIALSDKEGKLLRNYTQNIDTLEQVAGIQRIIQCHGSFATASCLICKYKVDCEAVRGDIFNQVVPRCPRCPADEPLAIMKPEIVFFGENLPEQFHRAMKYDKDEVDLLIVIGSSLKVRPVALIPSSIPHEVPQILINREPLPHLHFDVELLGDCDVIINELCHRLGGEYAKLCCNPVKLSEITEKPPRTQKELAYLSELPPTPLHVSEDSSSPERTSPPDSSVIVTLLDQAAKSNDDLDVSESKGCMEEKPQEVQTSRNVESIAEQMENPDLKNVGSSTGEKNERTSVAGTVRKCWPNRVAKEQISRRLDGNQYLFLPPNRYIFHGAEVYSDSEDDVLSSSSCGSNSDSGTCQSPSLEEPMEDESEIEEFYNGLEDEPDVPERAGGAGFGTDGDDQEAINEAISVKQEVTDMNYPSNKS
Assay Protocol: Mass spectrometry based assay to identify modulators of SIRT1 activity (deacetylation of p53-based acetylated peptide substrate)
Assay type: biochemical
Condition Details: 10 nM SIRT1, 0.5 μM peptide substrate, 120 μM βNAD+, 25 minutes at 25° C.
Measured Parameter: FOLD ACT. (percent maximum fold activation)

{"Compound": "O=C(Nc1ccccc1-c1nc2cccnc2s1)c1cc(NC[C@H](O)CO)nc(-c2ccccc2)n1 [Compound 105]", "Val": "A (Fold activation≧300%)"}
{"Compound": "CC(C)N1CCN(c2cc(C(=O)Nc3ccccc3-c3nc4cccnc4s3)nc(-c3ccccc3)c2)CC1 [Compound 123]", "Val": "A (Fold activation≧300%)"}
{"Compound": "COCCN(C)c1cc(C(=O)Nc2ccccc2-c2nc3cccnc3s2)nc(-c2ccccc2)c1 [Compound 137]", "Val": "A (Fold activation≧300%)"}

These measurements were taken from patent US20110009381A1.
